- target or test system: Nuclear respiratory factor 1 (Homo sapiens)
- assay comment: ATG_NRF1_CIS: Attagene CIS-FACTORIAL HepG2 Assay for human Nuclear Respiratory Factor 1 (NRF1) Orphan Gene (AID 2282987)
- condition details: HepG2 NRF1 cis-element reporter, Attagene multiplex; actives raise or lower the signal
The source made the active and inactive calls. Rule for the calls: active = hit-call score of the fitted dose curve at least 0.9, where 1 is the maximum; inactive = score below 0.9.
A correct response names exactly one class from yes = active, no = inactive

Here's what some known entries look like.
compound	group label
C=CC(=O)OCC(CO)(COCC(COC(=O)C=C)(COC(=O)C=C)COC(=O)C=C)COC(=O)C=C	yes
Oc1ccc(Cc2ccccc2O)cc1	no
Oc1cc2ccccc2cc1O	no
Clc1ccc2c(Cl)ccnc2c1	no
CC1CCC(CO)CC1 (stereo unspecified)	no

Dear colleague, could you share the recorded outcome for CC=O when you have a moment?
no

Again, but for C=CCOCC(CO)(CO)CO
no

Again, but for CC(C)(C)c1ccc(CCC=O)cc1
no

Again, but for CCOCCOCC
no

Again, but for FC(F)(F)N1C(F)(F)C(F)(F)OC(F)(F)C1(F)F
no

Again, but for CCc1ccccc1O
no

Again, but for C[C@]12CC[C@@H]3c4ccc(O)cc4CC[C@H]3[C@@H]1CC[C@@H]2OC(=O)CCC1CCCC1
no

Again, but for O=S(=O)(O)c1ccc2cc(O)ccc2c1
no

Again, but for CC1CNCC(C)O1 (stereo unspecified)
no

Again, but for O=CC(F)(F)C(F)(F)C(F)(F)F
no

Again, but for NC(C(F)(F)F)C(F)(F)F
no

* * *

- Read-out: Interleukin-1 alpha (IL1a), IL1A (gene 3552)
- assay comment: BSK_KF3CT_IL1a: BioMAP Diversity Plus: KF3CT Assay for Interleukin-1 alpha (IL1a) Biomarker Activity (AID 2283070)
- condition details: primary human keratinocytes with fibroblasts; actives raise or lower the signal
The source made the active and inactive calls. How the source made its calls: active means hit-call score of the fitted dose curve at least 0.9, where 1 is the maximum; inactive means score below 0.9.
A correct response names exactly one class from class 1 for active, class 0 for inactive

Here's what some known entries look like.
compound	group label
CC[N+](CC)(CC)Cc1ccccc1	class 0
C=CC(C)(CCC=C(C)C)OC(C)=O (stereo not given)	class 0

Dear colleague, could you share the recorded outcome for CN(Cc1cnc2nc(N)nc(N)c2n1)c1ccc(C(=O)N[C@@H](CCC(=O)O)C(=O)O)cc1 when you have a moment?
class 0

Again, but for O=C(c1ccccc1)c1ccccc1
class 0

Again, but for C=COC(=O)C(C)(C)CCCCCC
class 1

* * *

- Read-out: Tissue Factor, F3 (gene 2152)
- assay comment: BSK_CASM3C_TissueFactor: BioMAP Diversity Plus: CASM3C Assay for Tissue Factor Biomarker Activity (AID 2283052);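 note: cell surface tissue factor protein level read by ELISA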
- condition details: primary human coronary artery smooth muscle cells; actives raise or lower the signal
Active and inactive are the calls of the source. Rule for the calls: active = hit-call score of the fitted dose curve at least 0.9, where 1 is the maximum; inactive = score below 0.9.
A correct response names exactly one class from t (active), f (inactive)

Dear colleague, could you share the recorded outcome for Cc1ccc(N=Nc2c(O)ccc3ccccc23)c(C)c1 when you have a moment?
f

* * *

- Read-out: Decorin, DCN (gene 1634)
- assay comment: BSK_MyoF_Decorin: BioMAP Diversity Plus: MyoF Assay for Decorin Biomarker Activity (AID 2284265)
- condition details: primary human lung fibroblasts
Activity calls are given as the source filed them. How the source made its calls: active means hit-call score of the fitted dose curve at least 0.9, where 1 is the maximum; inactive means score below 0.9.
A correct response names exactly one class from active, inactive

Here's what some known entries look like.
compound	group label
CCOC(=O)CN[C@@H](C(=O)N1CC[C@H]1C(=O)NCc1ccc(/C(N)=N/O)cc1)C1CCCCC1	inactive
O=C(O)CCC(F)(F)C(F)(F)C(F)(F)C(F)(F)C(F)(F)F	inactive
CCCCC(CC)C(=O)OCCOCCOCCOCCOC(=O)C(CC)CCCC (stereo unspecified)	inactive

Dear colleague, could you share the recorded outcome for C=COC(=O)C(C)(C)CCCCCC when you have a moment?
active

Again, but for CC1=NN(c2ccccc2)C(=O)C1
inactive

Again, but for O=C1c2ccc(O)c(O)c2C(=O)c2c(O)ccc(O)c21
inactive
